The reported measurements were obtained from ChEMBL document CHEMBL1201862.

# System: DLD-1
# PROTOCOL: NCI tumour cell line growth inhibition, 48 h
Active and inactive are the calls of the source. Cut-off read from the data, not from the text of the source: active = GI50 up to about 1.1 µM and inactive = higher.
QUANTITY_MEASURED: GI50

Before answering, review these 3 worked examples.
>>> measured("CCOC(=O)C(C)(C)Oc1ccc2c(=O)cc(-c3ccc(Cl)cc3)oc2c1")
"> 100 µM (inactive)"
>>> measured("C=CC1(C)/C(=N\\O)C(C)(CC)C(=O)N1O (stereo not drawn)")
"> 100 µM (inactive)"
>>> measured("CN(C)CC(C)(C)C(=O)/C=C/c1ccccc1")
"12.6 µM (inactive)"

Ask | Any idea what GI50 was measured for `O=C(/N=C(/Nc1ccccc1)SCS/C(=N\C(=O)c1ccco1)Nc1ccccc1)c1ccco1` ?
Reply | 44 µM (inactive)

Ask | Which GI50 is reported for this compound? `CC#N.O[C@@H]1CCCC[C@H]1O.O[C@@H]1CCCC[C@H]1O.[TeH2]`
Reply | 32.2 µM (inactive)

Ask | Name the recorded GI50 for COC(=O)C(Cc1nc2ccccc2nc1O)C(=O)C(=O)Nc1ccc([N+](=O)[O-])cc1[N+](=O)[O-] (stereo not drawn) .
Reply | 19.5 µM (inactive)

Ask | Entry under review: `Cc1cccc(C)c1NC(=O)CCCC(=O)CC(=O)/C=C/c1ccccc1` . Reported GI50?
Reply | > 100 µM (inactive)

Ask | What GI50 value was documented for this compound, `Cc1ccc(S(=O)(=O)N/N=C\c2c3ccccc3[n+]([O-])c3ccccc23)cc1` ?
Reply | 2.65 µM (inactive)
